Target: Hypoxia-inducible factor 1-alpha (Homo sapiens) (UniProt Q16665)
Sequence (Q16665 whole entry, looked up): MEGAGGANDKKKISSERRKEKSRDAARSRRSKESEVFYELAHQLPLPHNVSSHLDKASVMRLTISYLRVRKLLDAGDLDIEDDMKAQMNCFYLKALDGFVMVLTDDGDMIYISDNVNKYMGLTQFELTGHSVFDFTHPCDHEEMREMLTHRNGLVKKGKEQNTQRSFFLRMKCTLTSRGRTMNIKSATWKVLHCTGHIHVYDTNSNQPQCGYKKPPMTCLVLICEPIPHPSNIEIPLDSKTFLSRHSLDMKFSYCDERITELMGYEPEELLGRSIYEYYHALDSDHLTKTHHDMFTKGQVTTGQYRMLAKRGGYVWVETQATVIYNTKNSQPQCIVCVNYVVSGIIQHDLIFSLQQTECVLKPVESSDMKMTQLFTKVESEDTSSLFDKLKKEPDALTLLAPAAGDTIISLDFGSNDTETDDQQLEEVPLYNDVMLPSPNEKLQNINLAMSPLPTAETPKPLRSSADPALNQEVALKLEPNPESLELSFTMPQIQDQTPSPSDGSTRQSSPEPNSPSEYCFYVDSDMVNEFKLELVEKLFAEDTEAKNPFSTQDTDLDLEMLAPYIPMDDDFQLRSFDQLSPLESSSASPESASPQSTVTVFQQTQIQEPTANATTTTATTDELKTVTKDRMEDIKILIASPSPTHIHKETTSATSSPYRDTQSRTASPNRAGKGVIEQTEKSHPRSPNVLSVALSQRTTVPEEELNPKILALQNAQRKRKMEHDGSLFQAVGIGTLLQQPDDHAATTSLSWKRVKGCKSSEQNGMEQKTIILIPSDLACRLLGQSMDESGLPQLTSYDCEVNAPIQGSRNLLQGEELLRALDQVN
Experiment: Induction of stabilization of HIF-1alpha in human Hep3B cells by measuring fold change protein level at 500 uM incubated for 3 hrs by Western blot analysis
Assay type: cell-based
Friendly reminder: fold change (FC) below 3 is yes (1), at or above is no (0).

Check out these entries, answers already filled in.
Compound	Class assignment
COC(=O)OCOC(=O)CNC(=O)C(=O)OC	yes (1)
COC(=O)C(=O)NCC(=O)OCOC(=O)OC(C)(C)C	yes (1)

Q. Lab log: compare recorded fold change (FC) with 3; is it strictly lower for COC(=O)C(=O)NCC(=O)OCOC(=O)C(C)C ?
A. yes (1)

Q. Now give it for COC(=O)C(=O)NCC(=O)OCOC(=O)OC(C)C too.
A. yes (1)

Q. Now give it for COC(=O)C(=O)NCC(=O)OCOC(C)=O too.
A. yes (1)

Q. Now give it for CCC(=O)OC(C)OC(=O)CNC(=O)C(=O)OC (stereo not drawn) too.
A. no (0)

====

Biological target: Hypoxia-inducible factor 1-alpha (Homo sapiens) (UniProt Q16665)
Test: Induction of stabilization of HIF-1alpha in human Hep3B cells by measuring fold change protein level at 500 uM incubated for 3 hrs by Western blot analysis
Type: cell-based
Items are presented alongside their recorded fold change (FC).
Number, no unit, nothing else.

Consider the worked cases shown below.
Compound	fold change (FC)
COC(=O)C(=O)NCC(=O)OCOC(=O)c1ccccc1	3
COC(=O)C(=O)NCC(=O)OCOC(=O)C(C)(C)C	1
COC(=O)OC(C)OC(=O)CNC(=O)C(=O)OC (configuration not stated)	3

Q. Could you share which fold change (FC) value was measured for CCOC(=O)OC(C)OC(=O)CNC(=O)C(=O)OC (configuration not stated) ?
A. 3

Q. Now give it for COC(=O)C(=O)NCC(=O)OC(C)OC(=O)Oc1ccccc1 (configuration not stated) too.
A. 5
